Every entry's value here was drawn from patent US20220220106A1.

Test: In vivo drug metabolism (pharmacokinetics) in mice, iv and po
Design: species or system C57 male mice
Details: male, C57, mouse, plasma, po, 10 mg/kg, po 10 mg/kg, read-out: Tmax po
OBSERVABLE: Tmax
Express your answer as a number followed by its unit.

Need Tmax for each of these compounds.
1. O=c1ccc2cnc3ccc(-c4ccc(F)nc4)cc3c2n1-c1cccc(C(F)(F)F)c1 [HTL-7-01]
2. CCC(=O)Nc1ccc(-c2ccc3ncc4ccc(=O)n(-c5cccc(C(F)(F)F)c5)c4c3c2)cn1 [HTL-6-45]

1: 30 min; 2: 15 min

Need Tmax for each of these compounds.
1. COc1ccc(-c2ccc3ncc4ccc(=O)n(-c5cccc(C(F)(F)F)c5)c4c3c2)cn1 [HTL-7-03]
2. CN1CCN(c2ccc(-c3ccc4ncc5ccc(=O)n(-c6cccc(C(F)(F)F)c6)c5c4c3)cn2)CC1 [HTL-7-17]

1. 40 min
2. 20 min

Param item = O=c1ccc2cnc3ccc(-c4cccnc4F)cc3c2n1-c1cccc(C(F)(F)F)c1 [HTL-6-48] ; retrieve measured Tmax.
15 min

###

Assay: In vivo drug metabolism (pharmacokinetics) in mice, iv and po
Design: species or system C57 male mice
Conditions: male, mouse, plasma; iv 1 mg/kg, C57 mice; read-out: CL iv
OBSERVABLE: clearance
Express your answer as a number followed by its unit.

Param item = CN1CCN(c2ccc(-c3ccc4ncc5ccc(=O)n(-c6cccc(C(F)(F)F)c6)c5c4c3)cn2)CC1 ; retrieve measured clearance.
99 mL/min/kg

Param item = O=c1ccc2cnc3ccc(-c4ccc(F)nc4)cc3c2n1-c1cccc(C(F)(F)F)c1 ; retrieve measured clearance.
27.8 mL/min/kg

Param item = COc1ccc(-c2ccc3ncc4ccc(=O)n(-c5cccc(C(F)(F)F)c5)c4c3c2)cn1 ; retrieve measured clearance.
24.1 mL/min/kg

Need clearance for each of these compounds.
1. CCC(=O)Nc1ccc(-c2ccc3ncc4ccc(=O)n(-c5cccc(C(F)(F)F)c5)c4c3c2)cn1
2. O=c1ccc2cnc3ccc(-c4cccnc4F)cc3c2n1-c1cccc(C(F)(F)F)c1

1: 176 mL/min/kg; 2: 25.6 mL/min/kg

###

Experiment: Water solubility in saturated aqueous solution (HPLC, one-point method)
Assay type: physicochemical
Conditions: deionized water, 25° C.
OBSERVABLE: Water solubility (µg/mL)
Numbers only, in µg/mL.

# count of solved cases: 4
Param item = CN1CCN(c2ccc(-c3ccc4ncc5ccc(=O)n(-c6cccc(C(F)(F)F)c6)c5c4c3)cn2)CC1 [HTL-7-17] ; retrieve measured Water solubility.
18.64

Param item = O=c1ccc2cnc3ccc(-c4cccnc4F)cc3c2n1-c1cccc(C(F)(F)F)c1 [HTL-6-48] ; retrieve measured Water solubility.
5.88

Param item = CCC(=O)Nc1ccc(-c2ccc3ncc4ccc(=O)n(-c5cccc(C(F)(F)F)c5)c4c3c2)cn1 [HTL-6-45] ; retrieve measured Water solubility.
0.39

Param item = COc1ccc(-c2ccc3ncc4ccc(=O)n(-c5cccc(C(F)(F)F)c5)c4c3c2)cn1 [HTL-7-03] ; retrieve measured Water solubility.
0.61

Further cases:
Param item = O=c1ccc2cnc3ccc(-c4ccc(F)nc4)cc3c2n1-c1cccc(C(F)(F)F)c1 [HTL-7-01] ; retrieve measured Water solubility.
0.42

###

Assay: In vivo drug metabolism (pharmacokinetics) in mice, iv and po
Parameters: species or system C57 male mice
Details: male, mouse, plasma; po 10 mg/kg, C57 mice; read-out: AUC po
OBSERVABLE: AUC (µg·h/mL)
Answers are plain numbers, in µg·h/mL.

# count of solved cases: 4
Param item = COc1ccc(-c2ccc3ncc4ccc(=O)n(-c5cccc(C(F)(F)F)c5)c4c3c2)cn1 ; retrieve measured AUC.
1.64

Param item = O=c1ccc2cnc3ccc(-c4ccc(F)nc4)cc3c2n1-c1cccc(C(F)(F)F)c1 ; retrieve measured AUC.
0.699

Param item = CN1CCN(c2ccc(-c3ccc4ncc5ccc(=O)n(-c6cccc(C(F)(F)F)c6)c5c4c3)cn2)CC1 ; retrieve measured AUC.
0.357

Param item = CCC(=O)Nc1ccc(-c2ccc3ncc4ccc(=O)n(-c5cccc(C(F)(F)F)c5)c4c3c2)cn1 ; retrieve measured AUC.
0.0354

Now examine the next entry.
Param item = O=c1ccc2cnc3ccc(-c4cccnc4F)cc3c2n1-c1cccc(C(F)(F)F)c1 ; retrieve measured AUC.
1.33
